Below, each entry is listed alongside its reported pEC50.
molecular target: Retinoic acid receptor RXR-beta (Mus musculus); test: Ability to activate gene expression at Retinoic acid receptor RXR-beta was evaluated in a cotransfection assay.
Sequence (P28704 whole entry): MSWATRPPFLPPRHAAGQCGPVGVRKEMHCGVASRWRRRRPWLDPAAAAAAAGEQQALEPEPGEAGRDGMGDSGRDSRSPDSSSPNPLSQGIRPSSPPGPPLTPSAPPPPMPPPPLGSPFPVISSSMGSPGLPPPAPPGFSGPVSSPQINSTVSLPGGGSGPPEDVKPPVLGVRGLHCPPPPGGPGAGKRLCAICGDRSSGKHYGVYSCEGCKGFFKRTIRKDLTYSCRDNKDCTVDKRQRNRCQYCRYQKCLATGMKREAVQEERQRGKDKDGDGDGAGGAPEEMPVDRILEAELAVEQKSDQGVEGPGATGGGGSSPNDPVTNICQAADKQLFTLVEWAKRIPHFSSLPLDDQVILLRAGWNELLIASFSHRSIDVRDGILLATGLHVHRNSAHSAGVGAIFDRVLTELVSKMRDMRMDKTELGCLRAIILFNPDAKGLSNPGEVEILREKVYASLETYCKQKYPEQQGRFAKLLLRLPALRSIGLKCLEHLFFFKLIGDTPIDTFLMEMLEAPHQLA
Scale explanation: pEC50 corresponds to minus log10 of a concentration expressed in moles per litre.

[
  {
    "Molecule": "Cc1cc2c(cc1C(C)(C)c1ccc(C(=O)O)cc1)C(C)(C)CCC2(C)C",
    "pEC50": 5.72
  },
  {
    "Molecule": "Cc1cc2c(cc1C1(c3ccc(C(=O)O)cc3)CO1)C(C)(C)CCC2(C)C (configuration not stated)",
    "pEC50": 7.17
  },
  {
    "Molecule": "C=C(c1ccc(C(=O)O)cc1)c1cc2c(cc1C)C(C)(C)C(C)C2(C)C (configuration not stated)",
    "pEC50": 6.55
  },
  {
    "Molecule": "CC(C)=C(c1ccc(C(=O)O)cc1)c1cc2c(cc1C)C(C)(C)CCC2(C)C",
    "pEC50": 6.89
  },
  {
    "Molecule": "Cc1cc2c(cc1C(C)c1ccc(C(=O)O)cc1)C(C)(C)CCC2(C)C (configuration not stated)",
    "pEC50": 6.51
  }
]

Q) Requested field: pEC50. Item: `C=C(c1ccc(C(=O)O)cc1)c1cc2c(cc1C)CCCC2(C)C`
A) 5.62

Q) Can you check `C=C(c1ccc(C(=O)O)cc1)c1cc2c(cc1C)C(C)(C)CCC2` next?
A) 6.11

Q) How about this molecule: `Cc1cc2c(cc1Oc1ccc(C(=O)O)cc1)C(C)(C)CCC2(C)C`
A) 5.72

Q) Lookup `Cc1cc2c(cc1Cc1ccc(C(=O)O)cc1)C(C)(C)CCC2(C)C`
A) 5.92

Q) Field entry: `Cc1cc2c(cc1C1(c3ccc(C(=O)O)cc3)CC1)C(C)(C)CCC2(C)C`
A) 7.66
